Recorded values, source patent US9663460B2.

Target: UniProt P41597
Sequence (P41597 whole entry, species assumed): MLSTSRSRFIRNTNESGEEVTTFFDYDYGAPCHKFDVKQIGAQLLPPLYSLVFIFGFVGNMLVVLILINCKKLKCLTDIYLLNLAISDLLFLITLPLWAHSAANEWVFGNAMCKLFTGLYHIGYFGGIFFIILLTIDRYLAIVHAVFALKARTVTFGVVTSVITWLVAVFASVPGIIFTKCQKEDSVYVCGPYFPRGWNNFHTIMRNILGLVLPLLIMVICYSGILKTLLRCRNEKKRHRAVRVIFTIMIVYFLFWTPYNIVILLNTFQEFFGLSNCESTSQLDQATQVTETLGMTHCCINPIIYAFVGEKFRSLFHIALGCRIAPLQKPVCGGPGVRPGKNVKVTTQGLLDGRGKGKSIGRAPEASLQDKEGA
Test: Calcium activity assayed on the FLIPR Tetra in HEK-Gqi5 cells stably expressing CCR2
Type: cell-based
Settings: FLIPR Tetra calcium assay
Procedure: HEK-Gqi5 cells stably expressing CCR2 were cultured in (DMEM high glucose, 10% FBS, 1% PSA, 400 μg/ml geneticin and 50 μg/ml hygromycin. Appropriate positive control chemokines (MCP-1, MIP1A or RANTES) was used as the positive control agonist for screening compound-induced calcium activity assayed on the FLIPR^Tetra. The drug plates were prepared in 384-well microplates using the EP3 and the MuItiPROBE robotic liquid handling systems. Compounds were synthesized and tested for CCR^2 activity.
pIC50: −log10 of the molar value.
measure: pIC50

Recorded pIC50, per entry:
CSc1ccc(Cl)cc1NS(=O)(=O)c1ccc(C)c([N+](=O)[O-])c1    6.17
Nc1ccc(CS(=O)(=O)c2ccc(Cl)cc2NS(=O)(=O)c2cc3ccccc3o2)cc1    7.05
O=S(=O)(Nc1cc(Cl)ccc1[S+]([O-])Cc1ccccn1)c1ccc(Cl)c(C(F)(F)F)c1 (stereo not drawn)    7.04
Nc1cc(CSc2ccc(Cl)cc2NS(=O)(=O)c2cc3ccccc3o2)n[nH]1    7.60
CS(=O)(=O)c1ccc(Cl)cc1NS(=O)(=O)c1ccc(C(F)(F)F)c([N+](=O)[O-])c1    6.67
N#Cc1ccc(SCc2ccccc2)c(NS(=O)(=O)c2cc3ccccc3o2)c1    5.42
C[S+]([O-])c1ccc(Cl)cc1NS(=O)(=O)c1ccc(Cl)c(Cl)c1 (stereo not drawn)    7.36

a. Nc1cccc(CS(=O)(=O)c2ccc(F)cc2NS(=O)(=O)c2cc3ccccc3o2)c1
b. O=S(=O)(CCO)c1ccc(Cl)cc1NS(=O)(=O)c1ccc(Cl)c(C(F)(F)F)c1
stdin: Which entry has a larger number for pIC50, a or b ? Lab log: write the label of the selected item as the result.
stdout: a
(a: 7.66, b: 7.02)
